Molecular target: UniProt:Q9NYW2
Sequence (Q9NYW2 whole entry): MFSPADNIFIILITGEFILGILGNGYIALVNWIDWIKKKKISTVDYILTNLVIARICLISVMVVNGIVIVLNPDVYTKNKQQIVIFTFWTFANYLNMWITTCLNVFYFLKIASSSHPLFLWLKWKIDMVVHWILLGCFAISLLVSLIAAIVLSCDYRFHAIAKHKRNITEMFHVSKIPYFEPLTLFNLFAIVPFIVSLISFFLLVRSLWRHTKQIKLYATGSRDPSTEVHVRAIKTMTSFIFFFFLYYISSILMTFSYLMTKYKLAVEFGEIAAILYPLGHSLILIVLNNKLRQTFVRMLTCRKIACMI
Assay: hT2R8 antagonist high-throughput FLIPR assay, stable cell line with G16g44, agonist andrographolide
Type: cell-based
Conditions: read-out: IC50 on hT2R8 bitter receptor
Measured parameter: pIC50
On this scale, pIC50 is minus log10 of a concentration expressed in M (mol/L).

In plain terms, `Cc1noc(C)c1Cn1cc(N2C(=O)N(Cc3ccc(F)cc3)C(C)(C)C2=O)cn1` has a documented pIC50 of 7.10

In plain terms, `COc1ccc(CN2C(=O)N(c3cnn(Cc4c(C)noc4C)c3)C(=O)C2(C)C)cc1` has a documented pIC50 of 6.96

In plain terms, Cc1noc(C)c1Cn1cc(N2C(=O)N(C(C)c3ccccc3)C(C)(C)C2=O)cn1 (stereo not drawn) has a documented pIC50 of 6.82

In plain terms, Cc1noc(C)c1Cn1cc(N2C(=O)NC(CCc3ccccc3)C2=O)cn1 (stereo not drawn) has a documented pIC50 of 6.66

In plain terms, `Cc1noc(C)c1Cn1cc(N2C(=O)[C@H](C)N(Cc3cccc(O)c3)C2=O)cn1` has a documented pIC50 of 7.70

In plain terms, `Cc1noc(C)c1Cn1cc(N2C(=O)CN(Cc3cccc(CO)n3)C2=O)cn1` has a documented pIC50 of 6.14

In plain terms, `CNC(=O)c1cccc(CN2CC(=O)N(c3cnn(Cc4c(C)noc4C)c3)C2=O)c1` has a documented pIC50 of 6.85

In plain terms, `Cc1cc(CN2C(=O)N(c3cnn(Cc4c(C)noc4C)c3)C(=O)C2(C)C)n(C)n1` has a documented pIC50 of 6.64

In plain terms, `CCn1c(=O)n(-c2cnn(Cc3c(C)noc3C)c2)c(=O)n1Cc1ccccc1` has a documented pIC50 of 7.40
